- target_entity: SUMO-conjugating enzyme UBC9 (Homo sapiens)
- experiment_summary: blockers of UBC9-mediated SUMO conjugation – biochemical, AlphaScreen, SUMOylation inhibitor project, confirmation (AID 2018)
- condition: AlphaScreen in vitro SUMOylation assay; at 35 µM; hits give high values
About 600 (50%) of roughly 1,200 compounds were called active. So high a share suggests a set chosen from earlier hits. The list shows a part of the results. Measured potencies and affinities stand elsewhere.
Quick reference for inhibition among some compounds
measurement_type: inhibition (%)

1) CCC(=O)OCCNc1cc(Sc2nccn2C)c2nonc2c1[N+](=O)[O-]: 24.5
2) O=C(c1cccn2c(=O)c3cc4ccccc4cc3nc12)N1CCN(c2ccccc2)CC1: 27.6
3) O=c1c(=Nc2ccccc2O)c(=O)c2ccccc12: 9.9
4) Cc1[nH][nH]c(=O)c1C(c1c(C)[nH][nH]c1=O)c1cn(Cc2ccc(F)cc2)c2ccccc12: 50.9
5) CCc1ccc2c(c1)C(NC(C)=O)C(=O)N2CCN1CCOCC1 (stereo unspecified): 96.7
6) Cc1nnc(Sc2cc(NCCO)c([N+](=O)[O-])c3nonc23)s1: 24.5
7) Cc1nnc(Sc2cc(NCCCO)c([N+](=O)[O-])c3nonc23)s1: 21.7
8) O=[N+]([O-])c1c(NCCCO)cc(Sc2nc3ccccc3s2)c2nonc12: 37.6
9) Cc1ccc(Sc2cc(NCCCO)c([N+](=O)[O-])c3nonc23)cc1: 35.8
10) CC(=O)OCCNc1cc(SCc2ccco2)c2nonc2c1[N+](=O)[O-]: 87.5
11) Cc1cccn2c(=O)c3cc(C(=O)NC4CCCCCC4)sc3nc12: 33.8
